- experimental protocol: refractive index (Na D-line) (dimensionless)
- measurement parameters: 293.15 K; 101.33 kPa; Liquid; Standard Abbe refractometry
metric name: refractive index
Answer as a number with no unit attached.

Name the recorded refractive index for Cc1cccc(C)c1 [1,3-dimethylbenzene] .
1.49735

// same read-out, input: CCc1ccccc1 [ethylbenzene]
1.4962

C=Cc1ccccc1 [styrene] , same question.
1.546

What about Cc1ccccc1C [1,2-dimethylbenzene] ?
1.50573

Now the same for O=[N+]([O-])c1ccccc1 [nitrobenzene]
1.55488

What do you have for Cc1ccccc1 [toluene] ?
1.4965

Try this compound next: Cc1ccc(C)cc1 [1,4-dimethylbenzene]
1.49577

Check c1ccccc1 [benzene] too.
1.5009

====

- measurement parameters: 293.15 K; 101 kPa; Liquid
API: label(entry) gives YES if the entry's mass density is strictly smaller than 900 kg/m3; on equality or larger values it gives NO.

A record lists CCc1ccccc1 . Is its mass density below 900 kg/m3?
YES

And for Cc1ccc(C)cc1 ?
YES

Also Cc1cccc(C)c1 ?
YES

What do we get for O=[N+]([O-])c1ccccc1 ?
NO

What about Cc1ccccc1 ?
YES

====

Consider the following molecules; for each one, report its mass density.
- measurement parameters: 313.15 K; 101 kPa; Liquid
Write the answer as a number in kg/m3, unit excluded.

Which value of mass density has been reported for CCc1ccccc1 [ethylbenzene] in the records?
851.85

Entry to check: Cc1cccc(C)c1 [1,3-dimethylbenzene]
847.11

What do you have for C=Cc1ccccc1 [styrene] ?
886.88

Next entry: Cc1ccccc1 [toluene]
848.25

Then Cc1ccc(C)cc1 [1,4-dimethylbenzene] ?
843.58

Then this molecule: c1ccccc1 [benzene]
857.87

Another: Cc1ccccc1C [1,2-dimethylbenzene]
859.67

Thanks! And O=[N+]([O-])c1ccccc1 [nitrobenzene] ?
1183.37

====

- measurement parameters: 353.15 K; 101 kPa; Liquid
metric name: mass density (kg/m3)
Dear colleague, please return just the value in kg/m3, with no unit written.

Look at this compound and give its reported mass density. O=[N+]([O-])c1ccccc1 [nitrobenzene]
1134.61

And what about the compound Cc1ccc(C)cc1 [1,4-dimethylbenzene] ?
809.07

Now try C=Cc1ccccc1 [styrene] .
848.64

Record: Cc1ccccc1 [toluene]
810.5

Proceed to Cc1cccc(C)c1 [1,3-dimethylbenzene]
810.51

====

Provide the recorded mass density for the entries that follow.
- measurement parameters: 323.15 K; 101 kPa; Liquid
Numbers after ± are expanded uncertainties.
Number first, unit second.

Could you tell me which mass density is on file for C=Cc1ccccc1 [styrene] ?
877.32 ± 1.6 kg/m3

Similarly, c1ccccc1 [benzene] ?
847.4 ± 1.9 kg/m3

Note, next up: Cc1ccccc1 [toluene]
838.9 ± 2.7 kg/m3

// repeat for Cc1cccc(C)c1 [1,3-dimethylbenzene] and report
838.27 ± 2.7 kg/m3

Moving on to Cc1ccc(C)cc1 [1,4-dimethylbenzene]
834.92 ± 2.1 kg/m3

// next record O=[N+]([O-])c1ccccc1 [nitrobenzene]
1172.38 ± 2 kg/m3

Same lookup for Cc1ccccc1C [1,2-dimethylbenzene] , please.
840.84 ± 1.9 kg/m3

====

- measurement parameters: 303.15 K; 101 kPa; Liquid
Would you kindly list mass density for each of these compounds?
Report the value in kg/m3 with no unit label.

Please report the recorded mass density for c1ccccc1 [benzene] .
867.99

Cc1cccc(C)c1 [1,3-dimethylbenzene] ?
855.76

Another compound to look at: Cc1ccccc1 [toluene]
857.53

Also check C=Cc1ccccc1 [styrene]
896.44

Same again, this time with Cc1ccc(C)cc1 [1,4-dimethylbenzene]
852.28

Then CCc1ccccc1 [ethylbenzene] ?
858.6

Next record, please: Cc1ccccc1C [1,2-dimethylbenzene]
872.25

Input O=[N+]([O-])c1ccccc1 [nitrobenzene]
1193.56

====

- measurement parameters: 343.15 K; 101 kPa; Liquid
Give mass density for every item shown.
Report the figure in kg/m3 without appending any unit label.

Which mass density reading was recorded for the compound Cc1ccccc1 [toluene] ?
820.03

Also need C=Cc1ccccc1 [styrene] , thanks.
858.2

Moving on to the next compound: c1ccccc1 [benzene]
825.42

Would you mind doing Cc1cccc(C)c1 [1,3-dimethylbenzene] as well?
819.97

What about this compound? O=[N+]([O-])c1ccccc1 [nitrobenzene]
1148

Proceed to Cc1ccc(C)cc1 [1,4-dimethylbenzene]
817.66

====

- measurement parameters: 333.15 K; 101 kPa; Liquid
metric name: mass density (kg/m3)
State the answer as a number, implicitly in kg/m3.

mass density lookup needed for Cc1ccc(C)cc1 [1,4-dimethylbenzene] , thanks.
826.27

Next entry: C=Cc1ccccc1 [styrene]
867.76

Then what about the compound Cc1ccccc1 [toluene] ?
829.5

Note, next up: c1ccccc1 [benzene]
836.59

Next: O=[N+]([O-])c1ccccc1 [nitrobenzene]
1160.59

Likewise for Cc1cccc(C)c1 [1,3-dimethylbenzene] ?
829.22

====

- measurement parameters: 293.15 K; 101 kPa; Liquid
± gives the expanded uncertainty stated by the source.
metric name: mass density

mass density for c1ccccc1 [benzene] ?
877.8 ± 1.6 kg/m3

Please give the result for C=Cc1ccccc1 [styrene] too.
906 ± 1.4 kg/m3

Also Cc1ccccc1C [1,2-dimethylbenzene] , if possible.
878.6 ± 1.6 kg/m3
